tested on: K-562 leukemia; assay: NCI-60 one-dose screen, 48 h (100 = growth as untreated, 0 = no growth, -100 = all killed); conditions: 10 µM unless noted
This is part of a sample that, as a whole, favours compounds with a hit. Of some 83,000 tested, about 20% had one in any assay.
Known growth of a selection of compounds
Reply numerically in %, unit not repeated.

Q: Quick check: growth of Cc1cccc(C)c1Nc1nnc(-c2c[nH]c3ccccc23)o1 ?
A: 98.4

Q: State the recorded growth for this entry: N#C/C(=C/c1ccc([N+](=O)[O-])cc1)c1nnc(NC(=O)c2ccc(-n3c(=O)[nH]c4ccccc4c3=O)cc2)s1
A: 103

Q: Suppose we examine the compound O=C(N/N=C/c1c[nH]c2ccccc12)Nc1ccccc1Cl ; what growth value has been reported?
A: 12.2

====

# Lookup of reported growth keyed by entry
tested on: T-47D breast; assay: NCI-60 one-dose screen, 48 h (100 = growth as untreated, 0 = no growth, -100 = all killed); details: 10 µM unless noted
This is part of a sample that, as a whole, favours compounds with a hit. Of some 83,000 tested, about 20% had one in any assay.
Use % as the unit, but write only the number.

Here is how some compounds turned out for growth.
NCCCCn1c(SCCc2c[nH]c3ccccc23)nnc1-c1ccc2ccccc2n1: -63.4
Cc1cc(=O)oc2cc(OCC(O)CNN3C(=O)c4cccc5c(N6CCN(C)CC6)ccc(c45)C3=O)ccc12 (stereo unspecified): 109

Q: What does the data say about its growth? Entry: Cc1ccc(N=Nc2c(N)nn3c(-c4cc5ccccc5oc4=O)ccnc23)cc1
A: 55.7

Q: // lookup growth for COc1ccc(Nc2ncnc3sc4c(c23)CCN(Cc2ccccc2)C4)cc1
A: 27.3

Q: Recorded growth for COc1ccc2c(c1)N=c1c-2cc2c(O)[nH]c(=S)n2c1=O , please?
A: 46.4

====

Listing: growth of selected compounds
System: NCI-H322M lung
Test: NCI-60 one-dose screen, 48 h (100 = growth as untreated, 0 = no growth, -100 = all killed)
Conditions: 10 µM unless noted
Procedure: Growth inhibition of the NCI-H322M human Non-Small Cell Lung tumor cell line is measured as a screen for anti-cancer activity. Cells are grown in 96 well plates and exposed to the test compound for 48 hours. Compounds are tested at a single concentration, which is 10^-5 M for most compounds. The reported endpoint is percent growth (GI% or GIPRCNT), where numbers from 0 - 100% represent growth inhibition, and numbers from -100% - 0 represent cell death. […]
The panel holds about 83,000 compounds, 20% with a hit somewhere; the sample as a whole holds those more often.
Response body: numeric value in %, unit text excluded.

Some entries whose results are on file:
O=C(N/N=C/c1ccoc1)c1[nH]c2ccc(Br)cc2c1-c1ccccc1: -86.4
O=C(N/N=C/c1ccc(-c2cccc([N+](=O)[O-])c2)s1)c1[nH]c2ccc(Br)cc2c1-c1ccccc1: 99.2
NNc1ncnc2sc3c(c12)CCN(Cc1ccccc1)C3: 40.9
COc1ccc2[nH]cc(-c3cc(N)n4nc(-c5c[nH]c6ccccc56)cc4n3)c2c1: 18.3
COc1ccc(-c2cc(C(=O)Oc3ccc(C=O)cc3OC)nn2-c2ccc(S(C)(=O)=O)cc2)cc1: 106
C[C@@H]1[C@H]2C[C@@H](C[C@H]1NCc1nc3ccccc3n1C1CCCCCC1)C2(C)C: 95.4

Q: Query (compound): Cc1ccc(C(C(=O)NC2CCCCC2)N(Cc2ccccc2Cl)C(=O)c2ccc(CN3CCOCC3)o2)o1 (stereo not drawn) ; field requested: growth
A: 105

Q: Which growth reading was recorded for the compound CN1C(=O)C(O)(CC(=O)c2cc3ccccc3oc2=O)c2ccccc21 (stereo not drawn) ?
A: 103

====

system: SNB-75 CNS; assay: NCI-60 one-dose screen, 48 h; conditions: 10 µM unless noted
The panel holds about 83,000 compounds, 20% with a hit somewhere; the sample as a whole holds those more often. The source made the active and inactive calls. The calls were made as follows: active = growth percent below 10; inactive = the rest.
Would you mind answering with one of these outcomes? true (1) for active, false (0) for inactive

Check out these entries, answers already filled in.
C=CC(=O)Nc1ccc(C(=O)/C=C/c2ccc(N(C)C)cc2)c(O)c1: false (0)
CN(C(=O)CN1C(=O)/C(=C/c2ccco2)SC1=S)C1CCS(=O)(=O)C1 (stereo not given): false (0)

Q: What did the test return for C=CC(=O)N1CCN(c2ccc3nc4c(nc3c2C(F)(F)F)C(=O)c2ncccc2C4=O)CC1 ?
A: false (0)

Q: Would you mind telling me which call this test gave COc1cc(/C=C/C(=O)c2cnn(-c3cc(=O)[nH]c4ccc(Cl)cc34)c2C)cc(OC)c1OC ?
A: true (1)

Q: Which result was noted for this compound in the test: COc1ccc(/C=C/c2nc3ccccc3c(=O)n2CC(=O)Nc2ccccc2)cc1
A: true (1)

====

tested on: BT-549 breast; experiment: NCI-60 one-dose screen, 48 h; conditions: 10 µM unless noted
About 83,000 compounds went through this panel and 20% of them were active in at least one assay; those are over-represented in the sample as a whole. Calls of active or inactive are those of the source. How the source made its calls: active means growth percent below 10; inactive means the rest.
Select the matching outcome among active, inactive

CC[C@]12C=CCN3CC[C@@]4(c5ccc(OC)cc5N(C)[C@H]4[C@@](O)(C(=O)OC)[C@@H]1OC(=O)CCCC[P+](c1ccc(F)cc1)(c1ccc(F)cc1)c1ccc(F)cc1)[C@@H]32: active
Nc1nn2c(-c3cc4cc(Br)ccc4oc3=O)ccnc2c1N=Nc1ccc(S(N)(=O)=O)cc1: inactive
COC(=O)c1cc(C(=O)C(C)(C)C)n2c3ccccc3c3ccccc3c12: inactive

Q: Entry COc1c2c(cc3c1C(CCc1ccccc1)N(C)CC3)OCO2 (stereo not drawn) : call = ?
A: active

Q: Short answer needed: outcome of this test for CC(=O)Nc1ccc(S(=O)(=O)Nc2ccc(-c3ccc4c(c3)NC(=O)/C4=C\c3ccc[nH]3)cc2)cc1 ?
A: inactive

Q: What call does the record list for COc1ccc(-n2c(NC(=O)N3CCN(C)CC3)c(C#N)c3ccccc32)cc1 ?
A: inactive

Q: # fetch the recorded call for COc1cc(/C=C/C(=O)c2cnn(-c3cc(=O)[nH]c4ccc(C)cc34)c2C)cc(OC)c1OC here
A: active

Q: Which outcome was entered for the compound COc1ccc2oc(=O)c(-c3csc(N/N=C(\C)c4cc(OC)c(OC)c(OC)c4)n3)cc2c1 in this test?
A: inactive

====

Each entry below carries its recorded growth.
test system: OVCAR-5 ovarian; assay: NCI-60 one-dose screen, 48 h (100 = growth as untreated, 0 = no growth, -100 = all killed); details: 10 µM unless noted
About 83,000 compounds went through this panel and 20% of them were active in at least one assay; those are over-represented in the sample as a whole.
Answer format: numeric, % implied, no suffix.

Q: Could you tell me which growth is on file for O=C1Nc2cc(-c3ccc(NS(=O)(=O)c4ccc(-c5ccccc5)cc4)cc3)ccc2/C1=C/c1ccc[nH]1 ?
A: 61.7

Q: // returns reported growth for input COc1ccc(C2=NN(C(=O)[C@H]3[C@@H](c4ccco4)c4sc(=O)[nH]c4S[C@@H]3C)C(c3ccc4ccccc4c3)C2)cc1 (stereo partly drawn)
A: 42.9

Q: # query: growth of entry CC1=C(C(=O)OCc2ccccc2)C(c2cccc3ccccc23)n2c(nc3ccccc32)N1 (stereo not drawn)
A: 41

Q: // growth lookup, key: OC1CCC(Cn2c(C(F)(F)F)cc3c(Cl)ncnc32)CC1 (stereo not drawn)
A: 94.6

====

tested on: BT-549 breast; experiment: NCI-60 one-dose screen, 48 h; settings: 10 µM unless noted
Compounds without any hit were thinned out: in the full panel of roughly 83,000, 20% have a hit. Calls of active or inactive are those of the source. How the source made its calls: active means growth percent below 10; inactive means the rest.
Bench note: report the call from active, inactive

// known answers, use as guide
COc1ccc(Nc2ncnc3sc4c(c23)CCN(Cc2ccccc2)C4)cc1: inactive
O=c1c(-c2nc(-c3ccccc3)c(-c3ccccc3)[nH]2)coc2ccc(F)cc12: inactive
CCCCCCCCc1ccc(C(=O)Nc2cccc(O)c2)cc1: inactive
O=C(Nc1nc2ccc([N+](=O)[O-])cc2s1)Nc1ccc(Cl)cc1Cl: inactive

Q: Fill in: this test's call for COc1ccc(NC(=O)NN2C(=O)c3ccccc3N(C)C2c2ccc(OC)cc2)cc1 (configuration not stated) is ___
A: inactive

Q: Dear all, I need the recorded test outcome for CCCCNC(=S)Nc1ccc(OCc2nc3ccc(Cl)cc3[nH]2)cc1 , thank you.
A: inactive

Q: Any idea what this test logged for Cc1ccc2c(c1)nc(-c1ccccc1)n2CC(=O)N=Nc1c(O)[nH]c2ccc(Cl)cc12 ?
A: active

Q: Recorded call for O=S(=O)(c1nc(-c2ccc(Br)cc2)oc1-c1ccc(Cl)cc1)N1CCCC(O)C1 (configuration not stated) ?
A: inactive

Q: What call does the record list for Cc1ccc(-c2cc(-c3ccccc3)[nH]c(=O)c2C#N)cc1 ?
A: inactive

Q: Test call for this compound, please: COc1ccc(N=Nc2c(N)nn3c(-c4ccc5c(c4)C=S=C5)ccnc23)cc1
A: inactive

Q: Hi, sorry to bother you, what did the test record for CCCCCCCCc1cccc(CC(=O)Nc2ccc(C)cc2C(=O)O)c1 ?
A: inactive

Q: State the result this test recorded for NNc1ncnc2sc3c(c12)CCN(Cc1ccccc1)C3 .
A: inactive

Q: What is the recorded call for this compound in the test? CCN1CCN(Cc2ccc(C(=O)Nc3cccc(Nc4ccc5c(OC)cccc5n4)c3)cc2C(F)(F)F)CC1
A: active

Q: What did the test return for O=C1CCC(N2C(=O)c3cccc(NCCOCCOCCOCCC(=O)NCCCC(=O)NC(c4ccc5c(c4)OCO5)c4cc(Cl)c5cccnc5c4O)c3C2=O)C(=O)C1 (configuration not stated) ?
A: inactive

Q: Tell me the recorded outcome of this test for CCOc1ccccc1[C@H]1C(C(=O)c2ccc(Cl)cc2)C2(N[C@@H]1c1ccccc1)C(=O)Nc1ccccc12 (some centres not stated) .
A: active

Q: Kindly provide the recorded test outcome for the following compound: CCCCNc1ccc2c3c(cccc13)C(=O)N(NCC(O)COc1ccc3c(C)cc(=O)oc3c1)C2=O (configuration not stated)
A: inactive

Q: What outcome does the record of this test show for C[C@@H](Nc1c(C#N)cnc2ccc(-c3cnc4[nH]ncc4c3)cc12)c1ccccc1 ?
A: active

Q: # outcome recorded in this test, key = COc1ccc2[nH]c(=O)c(CSc3ccccc3Nc3nccc(-c4ccc(C(F)(F)F)cc4)n3)cc2c1
A: active

Origin of values: PubChem BioAssay (NCI)
